Tested on: HOP-62 NSCLC
Assay: NCI-60 one-dose screen, 48 h (100 = growth as untreated, 0 = no growth, -100 = all killed)
Conditions: 10 µM unless noted
About 83,000 compounds went through this panel and 20% of them were active in at least one assay; those are over-represented in the sample as a whole. Activity calls are given as the source filed them. How the source made its calls: active means growth percent below 10; inactive means the rest.
Readings of growth for the listed molecules

Worked set:
OCCNc1nc(NCCO)nc(Nc2ccc(C3=NN(c4cc(Cl)cc(Cl)c4)C(c4ccccc4)C3)cc2)n1 (stereo unspecified) :: 29.1% (inactive)
CC(=O)[C@@H]1CC[C@]2(C(=O)O)CC[C@]3(C)[C@H](CC[C@@H]4[C@@]5(C)Cc6c([nH]c7ccccc67)C(C)(C)[C@@H]5CC[C@]43C)[C@@H]12 :: 74.8% (inactive)
Cc1cc(C)c(NC(=O)c2sc3nc4c(cc3c2N)CCCCCC4)c(C)c1 :: 45.6% (inactive)
c1cc(CNC23CC4CC(CC(C4)C2)C3)cc(C[N+](Cc2cccc(CNC34CC5CC(CC(C5)C3)C4)c2)(Cc2cccc(CNC34CC5CC(CC(C5)C3)C4)c2)Cc2cccc(CNC34CC5CC(CC(C5)C3)C4)c2)c1 (stereo unspecified) :: 33.1% [42 µM] (inactive)
COc1ccc(/C=C/C(=O)/C=C(/C=C/c2ccc(OC)c(OC)c2)OB(F)F)cc1OC :: 83.5% (inactive)

Q: Param readout = growth; param system = HOP-62 NSCLC; param query = `O=S(=O)(Nc1nccs1)c1ccc(Nc2nc(-c3ccncc3)cs2)cc1` ; response: value
Result: 93.8% (inactive)

Q: Follow-up item: N#CC1(C#N)C2=C(CCCC2)NC(c2c(F)cccc2Cl)C1(C#N)C#N (stereo unspecified)
Result: 72.1% (inactive)

Q: Follow-up item: `COc1ccc2oc(=O)cc(-c3nc4ccc(N)cc4[nH]3)c2c1`
Result: 70.8% (inactive)

Q: Follow-up item: O=C1Nc2ccccc2C12C=C(c1ccccc1)Nc1c2c(-c2ccccc2)nn1-c1ccccc1 (stereo unspecified)
Result: 81.4% (inactive)

Q: Follow-up item: `CC(C)(C#N)c1cc(F)cc(C(=O)Nc2cc(Nc3ncccc3-c3ncnc4nc[nH]c34)ccc2F)c1`
Result: 44.9% (inactive)

Q: Follow-up item: `Nc1c(C(=O)Nc2ccccc2)sc2nc3c(cc12)CN(C(=O)OCc1ccccc1)CC3`
Result: 44.4% (inactive)

Taken from PubChem BioAssay (NCI).
